Measured MIC (Escherichia coli CNUR 1)
measured parameter: MIC (µg/mL)

>>> value_observed("CC1CN(c2cc3c(cc2N)c(=O)c(C(=O)O)cn3C2CC2)CCN1 (stereo not drawn)")
0.12
>>> value_observed("CN1CCN(c2c(N)c(N)c3c(=O)c(C(=O)O)cn(C4CC4)c3c2F)CC1")
0.25
>>> value_observed("Nc1cc2c(=O)c(C(=O)O)cn(C3CC3)c2cc1N1CCNCC1")
0.25
>>> value_observed("CC(C)(C)n1cc(C(=O)O)c(=O)c2cc(N)c(N3CCN(c4ccccn4)CC3)cc21")
64
>>> value_observed("CN1CCN(c2nc3c(c(N)c2N)c(=O)c(C(=O)O)cn3C2CC2)CC1")
1
>>> value_observed("Nc1cc2c(=O)c(C(=O)O)cn(C3CC3)c2cc1N1CCCC1")
16
>>> value_observed("Cc1c(N2CCNCC2)c(N)cc2c(=O)c(C(=O)O)cn(C3CC3)c12")
0.12
>>> value_observed("CN1CCN(c2nc3c(cc2N)c(=O)c(C(=O)O)cn3C2CC2)CC1")
0.12
>>> value_observed("CN1CCN(c2c(F)cc3c(=O)c(C(=O)O)cn4c3c2SCC4)CC1 [RUFLOXACIN, reference compound]")
0.5
>>> value_observed("Nc1cc2c(=O)c(C(=O)O)cn(-c3ccc(F)cc3)c2cc1N1CCc2ccccc2C1")
4
>>> value_observed("CC(C)(C)n1cc(C(=O)O)c(=O)c2cc(N)c(N3CCc4ccccc4C3)cc21")
8
>>> value_observed("CN1CCN(c2cc3c(cc2N)c(=O)c(C(=O)O)cn3C2CC2)CC1")
0.25
>>> value_observed("CN1CCN(c2cc3c(cc2N)c(=O)c(C(=O)O)cn3-c2ccc(F)cc2)CC1")
4
>>> value_observed("Nc1cc2c(=O)c(C(=O)O)cn(C3CC3)c2cc1N1CCC(O)CC1")
2
>>> value_observed("CN1CCN(c2c(N)cc3c(=O)c(C(=O)O)cn(C4CC4)c3c2F)CC1")
0.12
>>> value_observed("Nc1cc2c(=O)c(C(=O)O)cn(-c3ccc(F)cc3)c2cc1N1CCSCC1")
4
>>> value_observed("Cc1c(N2CCN(C)CC2)c(N)cc2c(=O)c(C(=O)O)cn(C3CC3)c12")
0.06
>>> value_observed("CN1CCN(c2cc3c(cc2N)c(=O)c(C(=O)O)cn3C(C)(C)C)CC1")
1
